Source of measurements: the supplement of paper PMC10567573

B1: DLC1 (parent)
chain: AEVVKIRDSFSNQNTETKDTKSR

Variants of: B1
Assay: protein stability index of a GFP-peptide fusion (GPS, HEK-293T) (PSI 1-6); higher = more stable;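 also: lentivirally expressed fusions sorted by FACS into six bins by GFP to DsRed ratio, PSI derived from sequencing read proportions per bin multiplied by bin number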
Details: c terminus: native
The variants listed here are annotated with their protein stability index.
Give the figure only, with no unit attached.

# annotated cases, reported protein stability index shown
- T15H: 1.77
- D19K: 1.85
- S11I: 1.9
- R23F: 4.83
- D8N: 2.07

Looking up V3D , I found its protein stability index recorded as 3.54
